subject.of.test: canine TRPM8 (Canis lupus familiaris, UniProt Q1A7N1)
Sequence (Q1A7N1 1-1104): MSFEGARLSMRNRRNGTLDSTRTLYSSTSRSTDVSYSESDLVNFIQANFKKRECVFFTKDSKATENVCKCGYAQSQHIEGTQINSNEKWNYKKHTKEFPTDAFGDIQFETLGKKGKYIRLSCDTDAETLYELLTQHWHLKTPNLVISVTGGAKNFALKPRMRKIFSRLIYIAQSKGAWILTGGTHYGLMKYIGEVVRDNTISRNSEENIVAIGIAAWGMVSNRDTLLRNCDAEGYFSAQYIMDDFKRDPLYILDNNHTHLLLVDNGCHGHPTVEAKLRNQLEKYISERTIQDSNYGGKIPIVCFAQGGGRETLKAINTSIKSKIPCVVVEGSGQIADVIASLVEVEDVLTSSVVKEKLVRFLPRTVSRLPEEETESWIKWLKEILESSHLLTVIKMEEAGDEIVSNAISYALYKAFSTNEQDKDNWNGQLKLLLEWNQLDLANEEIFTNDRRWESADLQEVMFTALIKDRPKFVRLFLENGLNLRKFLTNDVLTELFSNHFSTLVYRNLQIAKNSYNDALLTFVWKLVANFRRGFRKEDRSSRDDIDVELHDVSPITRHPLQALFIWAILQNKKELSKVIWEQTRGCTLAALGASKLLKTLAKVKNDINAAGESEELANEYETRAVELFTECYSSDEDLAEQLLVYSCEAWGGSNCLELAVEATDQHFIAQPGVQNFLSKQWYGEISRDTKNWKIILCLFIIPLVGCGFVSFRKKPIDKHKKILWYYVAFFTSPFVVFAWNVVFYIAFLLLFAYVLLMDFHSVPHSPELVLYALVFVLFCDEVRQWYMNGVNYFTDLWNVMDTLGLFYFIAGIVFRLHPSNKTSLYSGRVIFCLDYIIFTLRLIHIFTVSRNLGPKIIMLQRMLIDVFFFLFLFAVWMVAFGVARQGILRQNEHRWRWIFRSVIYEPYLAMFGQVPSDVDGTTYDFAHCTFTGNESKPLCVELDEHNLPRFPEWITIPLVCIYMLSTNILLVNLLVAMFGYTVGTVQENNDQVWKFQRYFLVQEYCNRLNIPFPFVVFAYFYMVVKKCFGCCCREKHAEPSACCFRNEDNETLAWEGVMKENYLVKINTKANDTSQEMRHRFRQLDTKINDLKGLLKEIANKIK
method.description: In Vitro Canine TRPM8 Functional Assay (Ca2+ fluorescence, icilin activation)
Type: cell-based
reported.endpoint: IC50
Number first, unit second: that is the form wanted.

Prompt line: Recall the recorded IC50 for `COC(=O)CCS(=O)(=O)N(Cc1ccc(F)c(C(F)(F)F)c1)c1sc2ccccc2c1C` with canine TRPM8 (Canis lupus familiaris, UniProt Q1A7N1) and state it.
Response line: 18 nM

---

The following compounds are listed with their measured inhibition at 0.5 µM values.
subject.of.test: canine TRPM8 (Canis lupus familiaris, UniProt Q1A7N1)
method.description: In Vitro Canine TRPM8 Functional Assay (Ca2+ fluorescence, icilin activation)
Assay type: cell-based
settings: compound at 0.5 μM; canine TRPM8, icilin activation; read-out: % Inh @ 0.5
The reply should be a number in %, with the unit left off.

INSERT INTO assay_data (structure_as_smiles, numeric_result) VALUES
  ('O=S(=O)(c1ccccc1)N(Cc1ccncc1)c1cc2ccccc2s1', 65),
  ('O=S(=O)(c1ccc(C(F)(F)F)cc1)N(Cc1ccc(F)c(F)c1)c1sc2ccccc2c1Br', 65),
  ('CN1CCC[C@H]1CN(c1sc2ccccc2c1Br)S(=O)(=O)c1ccccc1', 97);

Prompt line: What inhibition at 0.5 µM value was documented for this compound, `O=S(=O)(c1ccccc1)N(CCN1CCOCC1)c1sc2ccccc2c1Br` ?
Response line: 92

Prompt line: What inhibition at 0.5 µM value was documented for this compound, `O=S(=O)(c1ccccc1)N(Cc1ccc(F)cc1)c1sc2ccccc2c1Cl` ?
Response line: 97

---

subject.of.test: human TRPM8 (Homo sapiens (Human), UniProt Q7Z2W7)
Sequence (Q7Z2W7 whole entry): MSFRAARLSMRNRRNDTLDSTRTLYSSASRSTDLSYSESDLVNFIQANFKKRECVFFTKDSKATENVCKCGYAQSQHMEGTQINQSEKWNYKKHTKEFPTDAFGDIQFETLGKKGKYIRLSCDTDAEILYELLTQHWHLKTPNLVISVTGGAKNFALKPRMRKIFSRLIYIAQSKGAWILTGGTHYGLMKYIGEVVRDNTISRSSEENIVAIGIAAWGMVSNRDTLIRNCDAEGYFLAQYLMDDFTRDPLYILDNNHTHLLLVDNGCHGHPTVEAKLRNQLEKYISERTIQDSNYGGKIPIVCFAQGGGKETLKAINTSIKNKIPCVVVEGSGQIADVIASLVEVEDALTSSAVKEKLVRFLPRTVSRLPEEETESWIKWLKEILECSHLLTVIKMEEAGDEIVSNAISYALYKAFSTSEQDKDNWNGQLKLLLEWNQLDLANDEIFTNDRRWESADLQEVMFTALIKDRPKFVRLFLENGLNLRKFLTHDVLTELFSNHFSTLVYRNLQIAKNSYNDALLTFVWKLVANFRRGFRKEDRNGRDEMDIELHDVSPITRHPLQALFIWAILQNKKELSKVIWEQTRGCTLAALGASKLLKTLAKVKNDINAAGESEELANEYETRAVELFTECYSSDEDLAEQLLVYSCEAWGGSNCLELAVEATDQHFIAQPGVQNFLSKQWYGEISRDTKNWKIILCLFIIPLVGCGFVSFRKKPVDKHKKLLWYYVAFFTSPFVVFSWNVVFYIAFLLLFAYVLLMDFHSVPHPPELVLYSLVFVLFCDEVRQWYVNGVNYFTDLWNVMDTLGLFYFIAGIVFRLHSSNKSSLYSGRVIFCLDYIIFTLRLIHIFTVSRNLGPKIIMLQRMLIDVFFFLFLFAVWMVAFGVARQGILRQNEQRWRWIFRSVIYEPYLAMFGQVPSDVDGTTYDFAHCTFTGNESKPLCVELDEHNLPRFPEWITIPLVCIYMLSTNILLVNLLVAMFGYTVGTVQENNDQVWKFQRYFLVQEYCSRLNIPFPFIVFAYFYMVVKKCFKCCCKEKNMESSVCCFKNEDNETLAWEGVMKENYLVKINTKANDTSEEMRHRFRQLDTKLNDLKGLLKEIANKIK
method.description: In Vitro Human TRPM8 Functional Assay (Ca2+ fluorescence, icilin EC80)
Assay type: cell-based
settings: Freshly transfected cells; read-out: hTRPM8 IC50
reported.endpoint: IC50 (nM)
The reply should be a number in nM, with the unit left off.

Prompt line: What IC50 value was documented for this compound, `Cc1c(N(Cc2ccc(F)c(C(F)(F)F)c2)S(=O)(=O)c2ccc(C(=O)O)cc2)sc2ccccc12` ?
Response line: 4

---

subject.of.test: canine TRPM8 (Canis lupus familiaris)
method.description: In Vitro Canine TRPM8 Functional Assay (Ca2+ fluorescence, icilin activation)
Assay type: cell-based
settings: compound at 0.2 μM; canine TRPM8, icilin activation; read-out: % Inh @ 0.2
The following compounds are listed with their measured inhibition at 0.2 µM values.
The reply should be a number in %, with the unit left off.

INSERT INTO results (compound, subject_of_test, reported_endpoint, numeric_result) VALUES
  ('O=S(=O)(c1ccccc1)N(CC12CC3CC(CC(C3)C1)C2)c1sc2ccccc2c1Br', 'canine TRPM8 (Canis lupus familiaris)', 'inhibition at 0.2 µM', 97);

Prompt line: What inhibition at 0.2 µM value was documented for this compound, CC(O)C1=C(N(Cc2ccc(F)c(F)c2)S(=O)(=O)c2ccccc2)S(=O)(=O)c2ccccc21 (stereo not shown) ?
Response line: 102

Prompt line: What inhibition at 0.2 µM value was documented for this compound, `O=S(=O)(c1ccc(-c2nnn[nH]2)cc1)N(CCCCC(F)(F)F)c1sc2ccccc2c1Br` ?
Response line: 102

Prompt line: What inhibition at 0.2 µM value was documented for this compound, `CS(=O)(=O)Nc1ccc(S(=O)(=O)N(Cc2ccc(F)c(C(F)(F)F)c2)c2sc3ccccc3c2Cl)c(O)c1` ?
Response line: 72

Prompt line: What inhibition at 0.2 µM value was documented for this compound, `CCCCN(C1=C(Br)c2ccccc2S1(=O)=O)S(=O)(=O)c1ccc(C(=O)O)cc1` ?
Response line: 95

Prompt line: What inhibition at 0.2 µM value was documented for this compound, `Cc1c(N(Cc2ccc(OC(F)(F)F)cc2)S(C)(=O)=O)sc2ccccc12` ?
Response line: 98

Prompt line: What inhibition at 0.2 µM value was documented for this compound, `CCS(=O)(=O)N(Cc1ccc(F)c(C(F)(F)F)c1)c1sc2ccccc2c1Cl` ?
Response line: 101

Prompt line: What inhibition at 0.2 µM value was documented for this compound, `C=C(C)c1c(N(Cc2cc(OC)c(Cl)cc2F)S(=O)(=O)CC)sc2ccccc12` ?
Response line: 93

Prompt line: What inhibition at 0.2 µM value was documented for this compound, `Cc1c(N(CCCC(F)(F)F)S(=O)(=O)c2ccc(Oc3ccncc3)cc2)sc2ccccc12` ?
Response line: 91

Prompt line: What inhibition at 0.2 µM value was documented for this compound, `Cc1c(N(Cc2ccc(F)c(C(F)(F)F)c2)S(=O)(=O)c2cccc3c2CN(C(=O)C(F)(F)F)CC3)sc2ccccc12` ?
Response line: 24

Prompt line: What inhibition at 0.2 µM value was documented for this compound, CCS(=O)(=O)N(CC1CCCN1C(=O)OC(C)(C)C)c1sc2ccccc2c1C (stereo not shown) ?
Response line: 93

Prompt line: What inhibition at 0.2 µM value was documented for this compound, `CNc1ccc(S(=O)(=O)N(CCC2CC2)c2sc3ccccc3c2Br)cc1Br` ?
Response line: 101

Prompt line: What inhibition at 0.2 µM value was documented for this compound, `Cc1c(N(CCC2CC2)S(=O)(=O)c2ccc(-c3noc(=O)[nH]3)cc2)sc2ccccc12` ?
Response line: 101

Prompt line: What inhibition at 0.2 µM value was documented for this compound, `COc1ccc(S(=O)(=O)N(Cc2ccc(F)c(C(F)(F)F)c2)c2sc3ccccc3c2Cl)cc1` ?
Response line: 95

Prompt line: What inhibition at 0.2 µM value was documented for this compound, `O=C(O)c1ccc(S(=O)(=O)N(CC2CCOCC2)c2sc3ccccc3c2Br)cc1` ?
Response line: 84

Prompt line: What inhibition at 0.2 µM value was documented for this compound, `CCCCN(c1sc2ccccc2c1C(C)(C)O)S(=O)(=O)c1ccc(C(C)=O)cc1` ?
Response line: 99
